test system: Jurkat (acute lymphoblastic leukemia) cells; assay: MTT cell growth inhibition, leukemia cells; type: cell-based, human; settings: Homo sapiens; Jurkat, 72 h, MTT; read-out: IC50
quantity.measured: IC50 (µg/mL)

{"columns": ["compound", "assayed.system", "IC50 [µg/mL]"],
 "data": [
  ["COc1ccc2cc1Oc1ccc(cc1)C[C@H]1c3cc(c(OC)cc3CCN1C)Oc1c(OCC(O)CNCC3CC3)c(OC)cc3c1[C@H](C2)N(C)CC3 (stereo partly drawn)", "Jurkat (acute lymphoblastic leukemia) cells", 0.56],
  ["COc1ccc2cc1Oc1ccc(cc1)C[C@H]1c3cc(c(OC)cc3CCN1C)Oc1c(OCC(O)CN3CCCC(C)C3)c(OC)cc3c1[C@H](C2)N(C)CC3 (stereo partly drawn)", "Jurkat (acute lymphoblastic leukemia) cells", 0.64],
  ["COc1ccc2cc1Oc1ccc(cc1)C[C@H]1c3cc(c(OC)cc3CCN1C)Oc1c(OCC(O)CN3CCN(C#N)CC3)c(OC)cc3c1[C@H](C2)N(C)CC3 (stereo partly drawn)", "Jurkat (acute lymphoblastic leukemia) cells", 0.97]
]}

1 = COc1ccc2cc1Oc1ccc(cc1)C[C@H]1c3cc(c(OC)cc3CCN1C)Oc1c(OCC(O)CN3CCSCC3)c(OC)cc3c1[C@H](C2)N(C)CC3 (stereo partly drawn)
2 = COc1cc(OC)cc(C(=O)Oc2c(OC)cc3c4c2Oc2cc5c(cc2OC)CCN(C)[C@H]5Cc2ccc(cc2)Oc2cc(ccc2OC)C[C@@H]4N(C)CC3)c1
3 = COc1ccc2cc1Oc1ccc(cc1)C[C@H]1c3cc(c(OC)cc3CCN1C)Oc1c(OC(=O)C3CC3)c(OC)cc3c1[C@H](C2)N(C)CC3
Ascending by IC50, please. // format: requested-order list of labels
2, 3, 1
(2: 0.51 µg/mL, 3: 0.81 µg/mL, 1: 1.24 µg/mL)

P = COc1ccc2cc1Oc1ccc(cc1)C[C@H]1c3cc(c(OC)cc3CCN1C)Oc1c(OCc3ccc(C(F)(F)F)cc3)c(OC)cc3c1[C@H](C2)N(C)CC3
Q = C=C(C)COc1c(OC)cc2c3c1Oc1cc4c(cc1OC)CCN(C)[C@H]4Cc1ccc(cc1)Oc1cc(ccc1OC)C[C@@H]3N(C)CC2
Field: lower IC50 | Options: P / Q Identify your selection by its label.
Q

###

tested on: SK-OV-3 (ovarian cancer) cells; experiment: MTT cell growth inhibition, solid tumor cells; format: cell-based, human; conditions: Homo sapiens; SK-OV-3, 72 h, MTT; read-out: IC50
quantity.measured: IC50 (µg/mL)

{"columns": ["molecule", "IC50, µg/mL"],
 "data": [
  ["COc1ccc2cc1Oc1ccc(cc1)C[C@H]1c3cc(c(OC)cc3CCN1C)Oc1c(OCc3cccc(F)c3F)c(OC)cc3c1[C@H](C2)N(C)CC3", 12.2],
  ["COc1ccc2cc1Oc1ccc(cc1)C[C@H]1c3cc(c(OC)cc3CCN1C)Oc1c(OCC3CC3)c(OC)cc3c1[C@H](C2)N(C)CC3", 3.77],
  ["COc1ccc2cc1Oc1ccc(cc1)C[C@H]1c3cc(c(OC)cc3CCN1C)Oc1c(OCc3ccc(C(F)(F)F)cc3)c(OC)cc3c1[C@H](C2)N(C)CC3", 6.19]
]}

I = COc1ccc2cc1Oc1ccc(cc1)C[C@H]1c3cc(c(OC)cc3CCN1C)Oc1c(OCC(O)CN3CCSCC3)c(OC)cc3c1[C@H](C2)N(C)CC3 (stereo partly shown)
II = COc1ccc2cc1Oc1ccc(cc1)C[C@H]1c3cc(c(OC)cc3CCN1C)Oc1c(OCC(O)CNCC3CC3)c(OC)cc3c1[C@H](C2)N(C)CC3 (stereo partly shown)
III = COc1ccc2cc1Oc1ccc(cc1)C[C@H]1c3cc(c(OC)cc3CCN1C)Oc1c(OC(=O)c3c(F)cccc3Cl)c(OC)cc3c1[C@H](C2)N(C)CC3
Sort the molecules on IC50; start with the lowest figure. Answer by naming the labels in the order asked.
II, III, I
(II: 1.54 µg/mL, III: 2.99 µg/mL, I: 4.6 µg/mL)

I = COc1cc(OC)cc(C(=O)Oc2c(OC)cc3c4c2Oc2cc5c(cc2OC)CCN(C)[C@H]5Cc2ccc(cc2)Oc2cc(ccc2OC)C[C@@H]4N(C)CC3)c1
II = COc1ccc2cc1Oc1ccc(cc1)C[C@H]1c3cc(c(OC)cc3CCN1C)Oc1c(OC3CCCC3)c(OC)cc3c1[C@H](C2)N(C)CC3
Min IC50? I | II Kindly state the label of the option you pick.
I
